- System Under Test: Rho-A (Homo sapiens)
- Sequence (P61586 1-190): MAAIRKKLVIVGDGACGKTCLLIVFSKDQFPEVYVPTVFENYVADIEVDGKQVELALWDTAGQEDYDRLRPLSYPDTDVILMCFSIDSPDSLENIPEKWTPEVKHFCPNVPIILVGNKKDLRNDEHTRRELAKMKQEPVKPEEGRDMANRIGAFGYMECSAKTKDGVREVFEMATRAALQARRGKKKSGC
- Method Notes: Ras GTP binding domain inhibition assay (Cy3-GTP/Cy5-GTP competition)
- Experimental Setup: without SOS, read-out: Rho-A: % inh.
- Source text: The following method was developed as specific assay for the following proteins: KRas wild type, KRas Q61H mutant, KRas G12C mutant, KRas G12D mutant, HRas wild type, Rac-1, and Rho-A. […] The small GTPases proteins: KRas wild type. KRas Q61H mutant, KRas G12C mutant, KRas G12D mutants, HRas wild type, Rac-1, and Rho-A were expressed as His-tagged proteins. In addition, the Guanosine nucleotide Exchange Factor (GEF) Sos protein (residues 556-1049) was expressed as a His-tagged protein. […]
Observable: inhibition at 20 µM

Here is how some compounds turned out for inhibition at 20 µM.
| Compound | inhibition at 20 µM |
| --- | --- |
| COC1CCN(C(=O)c2sc3nc(-c4nccn4C)nc(N[C@H]4C[C@@H](OC)C4)c3c2-c2ccccc2)C1 (some centres unmarked) [drawing 1058] | 26 to 50% |
| COc1cccc(Cn2ccnc2-c2nc(O)c3scc(-c4ccc(OCC(C)C)nc4)c3n2)c1 [drawing 1035] | 76 to 100% |
| O=C(NCc1ccccc1)c1nc(-c2ccccn2)nc(O)c1O [drawing 956] | 0% |
| COCCn1cc(Nc2nc(-c3ccccn3)nc(OC)c2OC)cn1 [drawing 928] | 0% |
| CC(C)CNC(=O)c1nc(-c2ccccn2)nc(O)c1O [drawing 946] | 51 to 75% |

(Q) // query inhibition at 20 µM value for entry Cn1ccnc1-c1nc(O)c2scc(-c3ccccn3)c2n1 [drawing 988]
(A) 51 to 75%

(Q) Lookup COc1c(O)nc(-c2ccccn2)nc1Oc1cccnc1 [drawing 937]
(A) 76 to 100%

(Q) Lookup COCCNc1nc(-c2nccn2C)nc2sc(-c3cccc(OC)c3)c(-c3ccc(OC)cc3)c12 [drawing 1010]
(A) 0%

(Q) Lookup CO[C@@H]1CCC(Nc2nc(-c3nccn3C)nc3sc(-c4ccn(C)n4)c(-c4ccccc4)c23)C1 (some centres unmarked) [drawing 994]
(A) 0%

(Q) Lookup COCC(C)Nc1nc(-c2nccn2C)nc2sc(-c3cccc(OC)c3)c(-c3cscn3)c12 (centres unmarked) [drawing 990]
(A) 26 to 50%

(Q) Lookup CO[C@H]1CC[C@@H](Nc2nc(-c3ncc[nH]3)nc3sc(-c4ccn(C)n4)c(-c4ccccc4)c23)C1 [drawing 1046]
(A) 51 to 75%

(Q) Lookup COCCNc1nc(-c2nccn2C)nc2sc(-c3ccccc3Cl)c(-c3ccc(OC)cc3)c12 [drawing 1011]
(A) 0%

(Q) Lookup COCCCN(C)c1nc(-c2nccn2C)nc2sc(-c3ccn(C)n3)c(-c3ccccc3)c12 [drawing 1000]
(A) 1 to 25%

(Q) Lookup COCCNC(=O)c1sc2nc(-c3nccn3C)nc(N[C@H]3C[C@@H](OC)C3)c2c1-c1ccccc1 [drawing 1056]
(A) 51 to 75%

(Q) Lookup COC1CCN(c2nc(-c3nccn3C)nc3sc(-c4ccccc4CO)c(-c4ccccc4)c23)C1 (centres unmarked) [drawing 952]
(A) 0%

(Q) Lookup COc1c(O)nc(-c2ccccn2)nc1Oc1ccccc1 [drawing 948]
(A) 51 to 75%

(Q) Lookup COc1cccc(-c2sc3nc(-c4nccn4C)nc(NC4CCC(OC)C4)c3c2C)c1F (centres unmarked) [drawing 1028]
(A) 76 to 100%
